Values from patent US20250066329A1

pIC50: −log10 of the molar value.
Recorded pIC50 values (UniProtKB Q9NXS2) are given below.
Sequence (Q9NXS2 whole entry): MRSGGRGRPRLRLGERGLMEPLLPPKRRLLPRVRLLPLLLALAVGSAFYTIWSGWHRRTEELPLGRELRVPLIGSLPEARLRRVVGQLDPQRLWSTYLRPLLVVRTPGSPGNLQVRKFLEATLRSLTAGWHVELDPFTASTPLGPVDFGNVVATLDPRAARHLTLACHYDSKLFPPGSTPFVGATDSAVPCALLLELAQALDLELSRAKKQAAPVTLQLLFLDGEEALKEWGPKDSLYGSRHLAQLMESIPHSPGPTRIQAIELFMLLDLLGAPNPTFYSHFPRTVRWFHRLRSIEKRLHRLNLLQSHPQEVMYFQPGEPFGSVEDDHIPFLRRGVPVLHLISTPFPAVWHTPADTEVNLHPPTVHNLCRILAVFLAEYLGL
measure: pIC50

// solved cases for pIC50 follow
molecule="Cn1cnnc1[C@@H]1CCN(c2c(C#N)cc(C(F)(F)F)nc2-c2ccc(F)nc2)[C@@H](C2CC2)C1 [Example 1]" value_measured=9.00
molecule=C[C@@H]1C[C@H](c2nncn2C)CCN1c1c(C#N)cc(C(F)(F)F)nc1-c1ccc(F)nc1 value_measured=8.00

1: Cn1cnnc1[C@@H]1CCN(c2c(C#N)cc(C(F)(F)F)nc2-c2cnc3nn(C(C)(C)C)cc3c2)[C@H](C2CC2)C1
2: Cn1cnnc1[C@@H]1CCN(c2c(C#N)cc(C(F)(F)F)nc2-c2ccc(F)nc2)[C@@H](C2CC2)C1 (racemic) [Example 2]
Field: lower pIC50 | Options: 1 / 2 Your answer should be the label of the entry you select.
2

====

# experimental.system: UniProtKB Q9NXS2
measure: IC50 (nM)

molecule="Cn1cnnc1[C@@H]1CCN(c2c(C#N)cc(C(F)(F)F)nc2-c2cnc3nn(C(C)(C)C)cc3c2)[C@@H](C2CC2)C1 (racemic)" value_measured=1

I: C[C@H]1C[C@H](c2nncn2C)CCN1c1c(C#N)ccnc1-c1ccnnc1
II: Cn1cnnc1[C@@H]1CCN(c2c(C#N)cc(C(F)(F)F)nc2-c2ccc(F)nc2)[C@H](C2CC2)C1
III: Cn1cnnc1C1CCN(c2c(C#N)cc(C(F)(F)F)nc2-c2ccc(F)nc2)C2(CC2)C1 (racemic)
Put the entries in order of IC50, starting with the largest number. Record the ranking as a list of labels in the requested order.
III, I, II
(III: 3 nM, I: 2 nM, II: 1 nM)

====

Recorded pIC50 values (QPCT (Homo sapiens, UniProt Q16769)) are given below.
pIC50: −log10 of the molar value.
measure: pIC50

molecule="Cn1cnnc1C1CCN(c2c(C#N)cc(C(F)(F)F)nc2-c2ccc(F)nc2)C2(CC2)C1 (racemic)" value_measured=7.89

1: Cn1cnnc1[C@@H]1CCN(c2c(C#N)cc(C(F)(F)F)nc2-c2ccc(F)nc2)[C@@H](C2CC2)C1 (racemic) [Example 2]
2: C[C@@H]1C[C@H](c2nncn2C)CCN1c1c(C#N)ccnc1-c1ccc(F)nc1 (racemic)
3: C[C@@H]1C[C@](F)(c2nncn2C)CCN1c1c(C#N)ccnc1-c1ccc(F)nc1
Arrange the 3 molecules by rising pIC50, starting with the smallest. Record the ranking as a list of labels in the requested order.
2, 3, 1
(2: 7.57, 3: 7.85, 1: 8.70)

====

# assay: Assay C: permeability in CACO-2 cells
# Format: in vitro ADME
# setup.conditions: human; Caco-2, apical to basolateral, pH 7.2
measure: Papp A→B at 2 h (×10⁻⁶ cm/s)

molecule=C[C@@H]1C[C@](F)(c2nncn2C)CCN1c1c(C#N)cc(C(F)(F)F)nc1-c1cnc2nn(C(C)(C)C)cc2c1 measurement_units="×10⁻⁶ cm/s" value_measured=9.2
molecule=C[C@H]1C[C@H](c2nncn2C)CCN1c1c(C#N)cc(C(F)(F)F)nc1-c1ccc(F)nc1 measurement_units="×10⁻⁶ cm/s" value_measured=15
molecule=C[C@@H]1C[C@H](c2nncn2C)CCN1c1c(C#N)cc(C(F)(F)F)nc1-c1ccc(F)nc1 measurement_units="×10⁻⁶ cm/s" value_measured=7.8

A: Cn1cnnc1[C@@H]1CCN(c2c(C#N)cc(C(F)(F)F)nc2-c2cnc3nn(C(C)(C)C)cc3c2)[C@@H](C2CC2)C1 (racemic)
B: C[C@@H]1C[C@](F)(c2nncn2C)CCN1c1c(C#N)cc(C(F)(F)F)nc1-c1ccnnc1
Field: lower Papp A→B at 2 h | Options: A / B Your answer should be the label of the entry you select.
A
(A: 1.1 ×10⁻⁶ cm/s, B: 3.3 ×10⁻⁶ cm/s)

A: CC[C@@H]1C[C@H](c2nncn2C)CCN1c1c(C#N)cc(C(F)(F)F)nc1-c1ccc(F)nc1
B: Cn1cnnc1[C@@H]1CCN(c2c(C#N)cc(C(F)(F)F)nc2-c2ccc(F)nc2)[C@@H](C2CC2)C1 (racemic) [Example 2]
Determine, for A and B , which has the greater value of Papp A→B at 2 h. Your answer should be the label of the entry you select.
A
(A: 22 ×10⁻⁶ cm/s, B: 13 ×10⁻⁶ cm/s)

A: Cc1cnnn1C1CCN(c2ncccc2-c2ccc(F)nc2)CC1
B: C[C@H]1C[C@H](c2nncn2C)CCN1c1c(C#N)ccnc1-c1ccc(F)nc1
Field: lower Papp A→B at 2 h | Options: A / B Your answer should be the label of the entry you select.
B
(B: 3.6 ×10⁻⁶ cm/s, A: 93 ×10⁻⁶ cm/s)

P: Cn1cnnc1C1CCN(c2c(C#N)cc(C(F)(F)F)nc2-c2ccc(F)nc2)C2(CC2)C1 (racemic)
Q: C[C@H]1C[C@H](c2nncn2C)CCN1c1c(C#N)ccnc1-c1ccnnc1
Field: lower Papp A→B at 2 h | Options: P / Q Your answer should be the label of the entry you select.
Q

====

# assay: Assay C: permeability in CACO-2 cells
# Format: in vitro ADME
# setup.conditions: human, pH 7.2; Caco-2, permeability B-A/permeability A-B
measure: efflux ratio at 2 h

compound="Cn1cnnc1[C@@H]1CCN(c2c(C#N)cc(C(F)(F)F)nc2-c2ccc(F)nc2)[C@@H](C2CC2)C1 [Example 1]" value_measured=4.4
compound="C[C@H]1C[C@H](c2nncn2C)CCN1c1c(C#N)ccnc1-c1ccnnc1 [Example 6]" value_measured=8.4
compound="C[C@H]1C[C@H](c2nncn2C)CCN1c1c(C#N)cc(C(F)(F)F)nc1-c1ccc(F)nc1 [Example 4]" value_measured=4.6
compound="Cn1cnnc1[C@@H]1CCN(c2c(C#N)cc(C(F)(F)F)nc2-c2ccc(F)nc2)[C@H](C2CC2)C1 [Example 8]" value_measured=3.3
compound="C[C@@H]1C[C@](F)(c2nncn2C)CCN1c1c(C#N)cc(C(F)(F)F)nc1-c1cnc2nn(C(C)(C)C)cc2c1 [Example 16]" value_measured=7.1

1: C[C@@H]1C[C@H](c2nncn2C)CCN1c1c(C#N)cc(C(F)(F)F)nc1-c1ccc(F)nc1 [Example 10]
2: Cn1cnnc1C1CCN(c2c(C#N)cc(C(F)(F)F)nc2-c2ccc(F)nc2)C2(CC2)C1 (racemic) [Example 17]
3: CC[C@@H]1C[C@H](c2nncn2C)CCN1c1c(C#N)cc(C(F)(F)F)nc1-c1ccc(F)nc1 [Example 9]
4: C[C@@H]1C[C@](F)(c2nncn2C)CCN1c1c(C#N)ccnc1-c1ccc(F)nc1 [Example 13]
5: Cc1cnnn1C1CCN(c2ncccc2-c2ccc(F)nc2)CC1 [Example 3]
Arrange the 5 compounds by rising efflux ratio at 2 h, starting with the smallest. Record the ranking as a list of labels in the requested order.
5, 4, 3, 1, 2
(5: 0.8, 4: 2.4, 3: 3.8, 1: 5.8, 2: 10.4)

A: Cn1cnnc1[C@@H]1CCN(c2c(C#N)cc(C(F)(F)F)nc2-c2ccc(F)nc2)[C@@H](C2CC2)C1 (racemic) [Example 2]
B: Cn1cnnc1[C@@H]1CCN(c2c(C#N)cc(C(F)(F)F)nc2-c2cnc3nn(C(C)(C)C)cc3c2)[C@H](C2CC2)C1 [Example 7]
Determine, for A and B , which has the greater value of efflux ratio at 2 h. Your answer should be the label of the entry you select.
B

A: C[C@@H]1C[C@](F)(c2nncn2C)CCN1c1c(C#N)cc(C(F)(F)F)nc1-c1ccnnc1 [Example 15]
B: Cn1cnnc1[C@@H]1CCN(c2c(C#N)cc(C(F)(F)F)nc2-c2cnc3nn(C(C)(C)C)cc3c2)[C@@H](C2CC2)C1 (racemic) [Example 3]
Determine, for A and B , which has the greater value of efflux ratio at 2 h. Your answer should be the label of the entry you select.
B

1: C[C@H]1C[C@H](c2nncn2C)CCN1c1c(C#N)ccnc1-c1ccc(F)nc1 [Example 5]
2: C[C@@H]1C[C@](F)(c2nncn2C)CCN1c1c(C#N)cc(C(F)(F)F)nc1-c1ccc(F)nc1 [Example 14]
Determine, for 1 and 2 , which has the greater value of efflux ratio at 2 h. Your answer should be the label of the entry you select.
1

====

Recorded pIC50 values (QPCT (Homo sapiens, UniProt Q16769)) are given below.
pIC50: −log10 of the molar value.
measure: pIC50

compound="Cn1cnnc1[C@@H]1CCN(c2c(C#N)cc(C(F)(F)F)nc2-c2cnc3nn(C(C)(C)C)cc3c2)[C@@H](C2CC2)C1 (racemic) [Example 3]" experimental_system="QPCT (Homo sapiens, UniProt Q16769)" value_measured=9.00

A: C[C@@H]1C[C@H](c2nncn2C)CCN1c1c(C#N)cc(C(F)(F)F)nc1-c1ccc(F)nc1 [Example 10]
B: CC[C@@H]1C[C@H](c2nncn2C)CCN1c1c(C#N)cc(C(F)(F)F)nc1-c1ccc(F)nc1 [Example 9]
C: C[C@H]1C[C@H](c2nncn2C)CCN1c1c(C#N)ccnc1-c1ccc(F)nc1 [Example 5]
D: Cn1cnnc1[C@@H]1CCN(c2c(C#N)cc(C(F)(F)F)nc2-c2ccc(F)nc2)[C@H](C2CC2)C1 [Example 8]
Put the entries in order of pIC50, starting with the largest number. Record the ranking as a list of labels in the requested order.
C, D, A, B
